Tested on: UACC-257 melanoma
experiment summary: NCI tumour cell line growth inhibition, 48 h
Below, each of the compounds is paired with its reported TGI value.

compound	TGI
Cc1ccc(S(=O)(=O)CN2C(=O)C(c3ccccc3)(c3ccccc3)C23OC(c2ccc(Cl)cc2)=CC3=O)cc1 (stereo not drawn)	> 10 µM
CCOC(=O)c1ccccc1OC(=O)NNc1ccccc1	> 100 µM

Write down the reported TGI of CC(=O)OCC(OC(C)=O)C(OC(C)=O)C(/C=N\Nc1nc2ccccc2c(=O)[nH]1)=N\Nc1nc2ccccc2c(=O)[nH]1 (stereo not drawn) , test system: UACC-257 melanoma. 34 µM

----------
Test system: IGROV1 ovarian
experiment summary: NCI tumour cell line growth inhibition, 48 h; in the data active = GI50 below about 0.43 µM; inactive = the rest
One label from this list, please: active, inactive

compound	answer label
CCCCCCCC/C=C/CCCCCCCC1=NC(C)(C)CN1CC(C)O (stereo not drawn)	inactive

For the next question, use this compound.
Kindly provide the recorded test outcome for the following compound: CO/C=C/C(=O)c1cc2cnc3c(=N)cc(NC(=O)C(C)C)c([nH]1)c23 active

----------
Tested on: NCI/ADR-RES ovarian
experiment summary: NCI tumour cell line growth inhibition, 48 h
endpoint: GI50

Recorded GI50, per entry:
O=C1/C(=C\c2ccc(F)cc2)CN(C(=O)c2ccccc2)C/C1=C\c1ccc(F)cc1 4.14 µM
CCN(CC)CCNc1ccc(C)c2sc3cc(Cl)ccc3c(=O)c12 1.62 µM

Now take the following molecule into account.
Entry CCOC(=O)c1ccccc1OC(=O)NNc1ccccc1 has what GI50? 3.8 µM

----------
Test system: UACC-62 melanoma
experiment summary: NCI tumour cell line growth inhibition, 48 h
endpoint: TGI

Recorded TGI, per entry:
molecule	TGI
CCOC(=O)c1ccc(Nc2sc(C(=O)c3ccc(Br)cc3)c(N)c2C#N)cc1	> 100 µM
COC(=O)[C@@H](C)C[C@H](Cc1cn(C)c2ccccc12)NC(=O)c1csc([C@@H](C[C@H](C(C)C)N(C)C(=O)[C@@H](NC(=O)[C@H]2CCCCN2C)C(C)C)OC(C)=O)n1	> 16.7 µM
O=c1[nH]nc(Cc2ccc(Cl)cc2)n1/N=C/c1ccco1	> 100 µM
CC(C)(C)N1CCC1CN (stereo unspecified)	> 100 µM
CCOC(=O)C1=C(C)N=c2s/c(=C\c3ccccc3O)c(=O)n2C1c1ccc(OC)c2ccccc12 (stereo unspecified)	> 100 µM

Now take the following molecule into account.
Entry O=C(c1ccccc1)c1ccc(N2C(=O)/C(=C/Cc3ccco3)N=C2c2ccccc2)c(N2C(=O)/C(=C/Cc3ccco3)N=C2c2ccccc2)c1 has what TGI? > 100 µM

----------
System: M14 melanoma
experiment summary: NCI tumour cell line growth inhibition, 48 h
endpoint: GI50

Recorded GI50, per entry:
Cc1ccc(NC(=O)c2ccc(CN3CCN(C)CC3)cc2)cc1Nc1nccc(-c2cccnc2)n1 19.1 µM
N.N.NCCCCCN.O=C([O-])CCl.O=C([O-])CCl.O=C([O-])CCl.O=C([O-])CCl.[Pt+4].[Pt+4] 9.28 µM

Entry COC(=O)[C@@H](C)C[C@H](Cc1cn(C)c2ccccc12)NC(=O)c1csc([C@@H](C[C@H](C(C)C)N(C)C(=O)[C@@H](NC(=O)[C@H]2CCCCN2C)C(C)C)OC(C)=O)n1 has what GI50? 0.0121 µM

----------
Below, each of the compounds is paired with its reported GI50 value.
Test system: SK-MEL-2 melanoma
experiment summary: NCI tumour cell line growth inhibition, 48 h

compound	result
COc1ccc(N=Cc2c(O)ccc3c2oc2cc(Cl)c(O)c(Cl)c23)cc1	5.92 µM
CN1CCC(COc2cnc(-c3cccc(Cn4nc(-c5cccc(C#N)c5)ccc4=O)c3)nc2)CC1	6.66 µM
C[C@]12CCc3nc(Nc4cccc(O)c4)sc3C1=CC[C@@H]1[C@@H]2CC[C@]2(C)/C(=N\NC(N)=S)CC[C@@H]12	2.32 µM
NS(=O)(=O)OCC1OC(n2cnc3cncnc32)C(O)C1O (stereo unspecified)	0.0351 µM
Cc1ccc(Cl)cc1Nc1nc(C(F)(F)F)ccc1C(=O)N/N=C/c1cccnc1	3.74 µM

Entry CCOC(=O)[C@@H](C)C[C@H](Cc1ccccc1)NC(=O)c1nc([C@@H](C[C@H](C(C)C)N(C)C(=O)[C@@H](NC(=O)[C@H]2CCCCN2C)C(C)C)OC(C)=O)sc1CCOCc1ccccc1 has what GI50? 0.0639 µM

----------
Below, each of the compounds is paired with its reported TGI value.
Test system: MDA-MB-231 breast
experiment summary: NCI tumour cell line growth inhibition, 48 h
State just the number; it will be interpreted in µM.

Recorded TGI, per entry:
smiles repr	endpoint	unit string	numeric readout
O=C1C(Cl)=C(Sc2nnc3c4ccccc4c4ccccc4c3n2)C(=O)c2ccccc21	TGI	µM	17
C1=NCCN2CCN(CCN=Cc3ccccc3OCc3cccc(n3)COc3ccccc31)CC2	TGI	µM	34

Entry NCCCNc1nc2ccccc2c2c(=O)c3cc(F)cc(F)c3sc12 has what TGI? 3.02

----------
Test system: OVCAR-8 ovarian
experiment summary: NCI tumour cell line growth inhibition, 48 h
endpoint: TGI (µM)
State just the number; it will be interpreted in µM.

Recorded TGI, per entry:
compound	endpoint	numeric readout
O=C1C(Cl)=C(Sc2nnc3c4ccccc4c4ccccc4c3n2)C(=O)c2ccccc21	TGI	29.6
Cc1cc(Nc2ccc(OCc3ccccc3)cc2)nc2cc(O)ccc12	TGI	29.5

Entry O=P1(Oc2ccccc2)N=P(c2ccccc2)(c2ccccc2)C=C(c2ccc(Cl)cc2)N1 (stereo not drawn) has what TGI? 29.8

----------
Tested on: PC-3 prostate
experiment summary: NCI tumour cell line growth inhibition, 48 h
endpoint: TGI (nM)
State just the number; it will be interpreted in nM.

Recorded TGI, per entry:
compound	TGI [nM]
CC[C@H]1CN2CCc3cc(OC)c(OC)cc3C2C[C@@H]1CC1NCCc2cc(OC)c(OC)cc21 (some centres undefined)	275
C[Si](C)(C)C#Cc1cc(-c2nc3ccccc3s2)ccc1N	34200

Now take the following compound into account.
Entry OC(c1cc(-c2cccc(Cl)c2)nc2ccccc12)C1CCCCN1 (centres undefined) has what TGI? 2840

----------
Below, each of the compounds is paired with its reported TGI value.
Tested on: LOX IMVI melanoma
experiment summary: NCI tumour cell line growth inhibition, 48 h

compound	target or test system	endpoint	result
Oc1ccc2c(c1)CCc1c-2n(CCN2CCOCC2)c2ccc(O)cc12	LOX IMVI melanoma	TGI	> 100 µM
Cc1cccc(-c2[nH]ncc2-c2ccc3ncccc3n2)n1	LOX IMVI melanoma	TGI	> 25 µM
FC(F)(F)c1ccc(Cc2nc3cc4ccccc4cc3[nH]2)cc1	LOX IMVI melanoma	TGI	> 100 µM
C=C(C)C1CC/C(C)=C/CCC2(C)OC2CC/C(CO)=C\C1O (stereo not drawn)	LOX IMVI melanoma	TGI	> 100 µM
O=C(CC(CC(=O)Oc1c(Br)cc(Br)cc1C(=O)O)C(=O)Oc1c(Br)cc(Br)cc1C(=O)O)Oc1c(Br)cc(Br)cc1C(=O)O	LOX IMVI melanoma	TGI	> 100 µM

Entry CC[C@H](NC(=O)[C@H]1CCCCN1C)C(=O)N(C)[C@H](C[C@@H](OC(C)=O)c1nc(C(=O)N[C@@H](Cc2ccccc2)C[C@H](C)C(=O)O)cs1)C(C)C has what TGI? > 14.3 µM

Entry C(/C=C/c1ccccc1)=Nc1ccc2c(c1)Cc1ccccc1-2 has what TGI? 63 µM

Entry CC1=NN(c2nc(N)nc(CBr)n2)C(C)(C)C1 has what TGI? 1.89 µM

Entry CC(C)(C)N1CCC1CN (stereo not drawn) has what TGI? > 100 µM

Entry CC1(C)CC(=O)C(/C=N/C(N)=S)=C(O)C1 has what TGI? > 100 µM

Entry CCOC(=O)c1ccc2c(c1)Cc1cc([N+](=O)[O-])ccc1-2 has what TGI? > 100 µM

Entry O=[N+]([O-])c1ccc(C2CC(c3ccccc3Cl)=Nc3ccccc3S2)cc1 (stereo not drawn) has what TGI? 11.8 µM

Entry CN(C)CCCC1c2ccccc2Oc2ccc(C(F)(F)F)cc21 (stereo not drawn) has what TGI? 31.6 µM

----------
Tested on: HCT-15 colon
experiment summary: NCI tumour cell line growth inhibition, 48 h
endpoint: TGI

Recorded TGI, per entry:
molecule	target or test system	result
CC(C)(C)N1CCC1CN (configuration not stated)	HCT-15 colon	> 100 µM
Clc1ccc(Nc2nnc(CCCCCCCCc3nnc(Nc4ccc(Cl)cc4)o3)o2)cc1	HCT-15 colon	> 100 µM
CC1(C)N=C(N)N=C(N)N1c1ccc(CCCCc2ccccc2)c(Cl)c1	HCT-15 colon	35.5 µM

Entry N#CC(N)c1ccc(OCCCCCCCCCCOc2ccc(C(N)C#N)cc2)cc1 (configuration not stated) has what TGI? > 100 µM

Entry Nc1c(C(=O)c2ccc(-c3cccnc3)cc2)cnn1-c1ccc(F)cc1 has what TGI? > 25 µM

Entry COC(=O)[C@H](Cc1ccccc1)NC(=O)/C(=C/C(C)C)NC(=O)[C@H](CCSC)NC=O has what TGI? > 100 µM

Entry Cc1cc(=O)[nH]c(N/N=C/c2cc(Br)ccc2O)n1 has what TGI? > 100 µM

Entry c1ccc2c(CN3CCN(Cc4c[nH]c5ccccc45)CC3)c[nH]c2c1 has what TGI? 44.4 µM

Entry COc1ccccc1C1C(Cl)C(=O)N1n1cnc2ccccc2c1=O (configuration not stated) has what TGI? > 100 µM

Entry Cc1ccc(/C=N/n2c(Cc3ccccc3)n[nH]c2=O)cc1 has what TGI? > 100 µM

Every entry's value here was drawn from PubChem BioAssay (NCI).
